# Species: Homo sapiens
# ASSAY_SUMMARY: Binding affinity to human d(TTAGGG)4 assessed as thermal transition temperature at 20 uM preincubated for 5 mins at 90 degC followed by cooling at room temperature measured after 4 hrs by UV spectrophotometric analysis in presence of 150 mM K+ (reference value: 63.1 degC)
Binary call on T with cut-off 70 °C: strictly below means fulfilled, and equality or higher means not fulfilled.

Solved cases (5 shown):
- MOLECULAR_STRING: "CC(C)[C@@H]1NC(=O)c2coc(n2)-c2coc(n2)-c2cccc(c2)-c2cccc(c2)-c2nc(co2)-c2nc(co2)CNC1=O"
  ASSIGNED_LABEL: "fulfilled"
- MOLECULAR_STRING: "CC(C)[C@@H]1NC(=O)c2coc(n2)-c2coc(n2)-c2coc(n2)[C@H](CCN(C)C)NC(=O)c2coc(n2)-c2coc(n2)-c2coc1n2"
  ASSIGNED_LABEL: "not fulfilled"
- MOLECULAR_STRING: "O=C1N[C@@H](Cc2ccccc2)C(=O)NCc2coc(n2)-c2coc(n2)-c2cccc(c2)-c2cccc(c2)-c2nc(co2)-c2nc1co2"
  ASSIGNED_LABEL: "fulfilled"
- MOLECULAR_STRING: "CC(C)[C@@H]1NC(=O)c2coc(n2)-c2coc(n2)-c2coc(n2)C/C=C/c2coc(n2)-c2coc(n2)-c2coc1n2"
  ASSIGNED_LABEL: "not fulfilled"
- MOLECULAR_STRING: "NCC[C@@H]1NC(=O)c2coc(n2)-c2coc(n2)-c2cccc(c2)-c2cccc(c2)-c2nc(co2)-c2nc(co2)CNC1=O"
  ASSIGNED_LABEL: "not fulfilled"

[Q] Just wondering, is T of O=C1CNC(=O)c2coc(n2)-c2coc(n2)-c2cccc(c2)-c2cccc(c2)-c2nc(co2)-c2nc(co2)CN1 below 70 °C?
[A] fulfilled

[Q] Just wondering, is T of CN(C)CCc1cc2cc(c1)CNC(=O)c1coc(n1)-c1coc(n1)-c1cccc(n1)-c1nc(co1)-c1nc(co1)C(=O)NC2 below 70 °C?
[A] not fulfilled

[Q] Just wondering, is T of CC(C)(C)OC(=O)NCC[C@@H]1NC(=O)c2coc(n2)-c2coc(n2)-c2cccc(c2)-c2cccc(c2)-c2nc(co2)-c2nc(co2)CNC1=O below 70 °C?
[A] fulfilled

[Q] Just wondering, is T of CN(C)CC[C@@H]1NC(=O)c2coc(n2)-c2coc(n2)-c2cccc(c2)-c2cccc(c2)-c2nc(co2)-c2nc(co2)CNC1=O below 70 °C?
[A] not fulfilled

Data credit: ChEMBL document CHEMBL2412965
